The measurements presented in this section are drawn from patent US12528812B2.

target: Recombinant human JAK2 kinase domain protein (Residues 812-1132) (Homo sapiens, UniProt O60674); assay: JAK2 biochemical assay (LabChip mobility shift, Ki); details: Biochem JAK2 Ki
Sequence (O60674 812-1132): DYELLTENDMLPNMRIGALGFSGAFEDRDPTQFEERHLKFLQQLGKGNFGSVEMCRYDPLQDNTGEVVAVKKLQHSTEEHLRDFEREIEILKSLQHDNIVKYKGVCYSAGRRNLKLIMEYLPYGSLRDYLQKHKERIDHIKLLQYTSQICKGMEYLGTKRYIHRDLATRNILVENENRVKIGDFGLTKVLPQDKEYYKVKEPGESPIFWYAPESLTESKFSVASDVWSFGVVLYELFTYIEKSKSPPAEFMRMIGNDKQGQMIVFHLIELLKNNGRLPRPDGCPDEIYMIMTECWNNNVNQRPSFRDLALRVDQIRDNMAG
pKi: −log10 of the molar value.
Would you please tag the item YES when its pKi is 9 or above, and NO when it is below?

# molecule, group
data = [
    ("Cc1nn(CCO)cc1Oc1ccc(OC(F)F)c(-c2nn(C)cc2NC(=O)c2cnn3cccnc23)c1", "YES"),
    ("Cn1cc(NC(=O)c2cnn3cccnc23)c(-c2cc(Oc3ccc4c(c3)CN(C3COC3)CC4)ccc2OC(F)F)n1", "YES"),
    ("Cn1cc(NC(=O)c2cnn3cccnc23)c(-c2cc(Oc3cccc(C(=O)N4CCC(N5CCOCC5)CC4)c3)ccc2OC(F)F)n1", "YES"),
    ("Cn1cc(NC(=O)c2cnn3cccnc23)c(-c2cc(Oc3cnn(C4CC(O)C4)c3)ccc2OC(F)F)n1 (centres unmarked) [Example 118]", "YES"),
    ("Cn1cc(NC(=O)c2cnn3cccnc23)c(-c2cc(Oc3cnn([C@H]4CCNC4)c3)ccc2OC(F)F)n1 (racemic)", "NO"),
    ("CC(=O)n1cc(Oc2ccc(OC(F)F)c(-c3nn(C)cc3NC(=O)c3cnn4cccnc34)c2)cn1", "YES"),
    ("CN(C)C(=O)c1cncc(Oc2ccc(OC(F)F)c(-c3nn(C)cc3NC(=O)c3cnn4cccnc34)c2)c1", "YES"),
    ("Cn1cc(NC(=O)c2cnn3cccnc23)c(-c2cc(Oc3ccc(C4(CC#N)CNC4)cc3)ccc2OC(F)F)n1", "NO"),
    ("Cn1cc(NC(=O)c2cnn3cccnc23)c(-c2cc(Oc3cccc([C@H]4CNCCO4)c3)ccc2OC(F)F)n1 (racemic)", "YES"),
]

###

target: recombinant human JAK1 kinase domain protein (Residues 854-1154) (Homo sapiens); construct: human JAK1 kinase domain protein (Residues 854-1154); assay: JAK1 biochemical assay (LabChip mobility shift, Ki); details: read-out: Biochem JAK1 Ki
Sequence (P23458 854-1154): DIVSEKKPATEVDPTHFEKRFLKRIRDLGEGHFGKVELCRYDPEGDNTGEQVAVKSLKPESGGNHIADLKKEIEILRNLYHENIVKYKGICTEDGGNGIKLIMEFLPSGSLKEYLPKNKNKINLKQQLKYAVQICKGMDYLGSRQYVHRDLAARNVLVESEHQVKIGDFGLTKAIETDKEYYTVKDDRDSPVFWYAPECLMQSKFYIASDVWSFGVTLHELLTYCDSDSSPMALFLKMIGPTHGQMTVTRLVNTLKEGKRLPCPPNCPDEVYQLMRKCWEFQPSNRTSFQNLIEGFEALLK

# compound, Ki / nM
rows = [
    ("Cn1cc(NC(=O)c2cnn3cccnc23)c(-c2cc(Oc3cnn(CCBr)c3)ccc2OC(F)F)n1", 1.1),
    ("Cn1cc(NC(=O)c2cnn3cccnc23)c(-c2cc(Oc3cccc(-n4nccc4CN)c3)ccc2OC(F)F)n1", 0.91),
    ("Cn1cc(NC(=O)c2cnn3cccnc23)c(-c2cc(Oc3cc(F)cc(C4(O)CNC4)c3)ccc2OC(F)F)n1", 0.17),
    ("CN1CC(O)(c2cc(Oc3ccc(OC(F)F)c(-c4nn(C)cc4NC(=O)c4cnn5cccnc45)c3)ccc2F)C1", 0.73),
    ("Cn1cc(NC(=O)c2cnn3cccnc23)c(-c2cc(Oc3ccc(CN4CCC4CO)cc3)ccc2OC(F)F)n1 (racemic) [Example 169]", 1.2),
    ("Cc1ccc(Oc2ccc(OC(F)F)c(-c3nn(C)cc3NC(=O)c3cnn4cccnc34)c2)cc1C(=O)N1CCN(C)CC1", 0.64),
    ("Cn1cc(NC(=O)c2cnn3cccnc23)c(-c2cc(Oc3cnn(C4CCNC4)c3)ccc2OC(F)F)n1 (racemic)", 2),
    ("CN1CCCC(O)(Cn2cc(Oc3ccc(OC(F)F)c(-c4nn(C)cc4NC(=O)c4cnn5cccnc45)c3)cn2)C1 (centres unmarked) [Example 194]", 2.1),
    ("CN1CCN(C(=O)c2cccc(Oc3ccc(OC(F)F)c(-c4nn(C)cc4NC(=O)c4cnn5cccnc45)c3)c2)CC1", 0.48),
    ("CN1CC(O)(c2cccc(Oc3ccc(OC(F)F)c(-c4nn(C5CCOCC5)cc4NC(=O)c4cnn5cccnc45)c3)c2)C1", 0.87),
    ("Cn1cc(NC(=O)c2cnn3cccnc23)c(-c2cc(Oc3cnn([C@H]4CCNC4)c3)ccc2OC(F)F)n1 (racemic)", 3.9),
    ("CN(C)[C@H]1CCN(C(=O)c2cccc(Oc3ccc(OC(F)F)c(-c4nn(C)cc4NC(=O)c4cnn5cccnc45)c3)c2)C1 (racemic)", 1.1),
    ("Cn1cc(NC(=O)c2cnn3cccnc23)c(-c2cc(Oc3cccc(CN)c3)ccc2OC(F)F)n1", 0.21),
    ("Cn1cc(NC(=O)c2cnn3cccnc23)c(-c2cc(Oc3ccc(CN4CCCC[C@@H]4CO)cc3)ccc2OC(F)F)n1 (racemic)", 2.5),
]
